// data source = ChEMBL document CHEMBL1201862

tested on: MDA-MB-435; experiment: NCI tumour cell line growth inhibition, 48 h
Activity calls are given as the source filed them. No stated cut-off is given here; in the data, active = GI50 up to about 1.1 µM and inactive = higher.
We begin with a simple list: items and their reported GI50.

Guide cases for GI50, answers given:
[[record]]
compound = "CNn1c(C)n[nH]c1=O"
endpoint_result = "> 100 µM (inactive)"

[[record]]
compound = "CC1(C)Oc2ccccc2OC1O (configuration not stated)"
endpoint_result = "> 100 µM (inactive)"

[[record]]
compound = "COC(=O)c1c(O)ccc2c1c1c(n2Cc2ccccn2)C(=O)c2ccccc2C1=O"
endpoint_result = "86.7 µM (inactive)"

[[record]]
compound = "Cc1ccc([N+](=O)[O-])cc1S(=O)(=O)Nc1ccc(C(=O)/C=C/c2ccccc2)cc1"
endpoint_result = "19.6 µM (inactive)"

[[record]]
compound = "CN(C)C(=S)SCC(N)=O"
endpoint_result = "> 100 µM (inactive)"


Look up GI50: `O=C1/C(=N/N=C(c2ccccc2)c2ccccc2)c2ccccc2-c2ccccc21`
> 100 µM (inactive)

Try C[C@@]12CCC(=O)C=C1CC[C@H]1C2=CC[C@]2(C)C1CC[C@@]2(C)O (some centres not stated) next.
23.3 µM (inactive)

Try `CN(C(=O)Cc1cc(Cl)c(Cl)cc1NC(=O)CCCN)[C@H]1CCCC[C@@H]1N1CCCC1` next.
16.4 µM (inactive)

Try `O=S1(=O)CCN(c2ccccc2CC(c2c[nH]c3ccccc23)c2c[nH]c3ccccc23)CC1` next.
5.62 µM (inactive)

Try `CONC(C)=O` next.
> 100 µM (inactive)

Try CC1=C2c3c(C)ccc4ccc(C)c(c34)C2(O)C(C)C1=O (configuration not stated) next.
52.1 µM (inactive)

Try `COC(=O)[C@@]1(Cc2ccc(OC(C)=O)cc2)Cc2cc3ccccc3n2N1` next.
43.6 µM (inactive)

Try `CN(C(=O)C1=CCCCCC1)c1ccccc1I` next.
40.2 µM (inactive)

Try CC1(C)CC(=O)C2(CC(CSc3ccccc3)C(CS(=O)(=O)c3ccccc3)C2)C(=O)C1 (configuration not stated) next.
> 100 µM (inactive)

Try `CC(=O)c1nccc2c1c(C)nc1ccccc12` next.
> 100 µM (inactive)

Try `O=C(CCc1ccc(O)c(O)c1)OCCc1ccccc1` next.
20.8 µM (inactive)

Try `CN(CCN(C)CCN(C)C(=O)Cc1ccc(Cl)c(Cl)c1)CCN1CCCC1` next.
5.68 µM (inactive)
